Experiment: NCI Yeast Anticancer Drug Screen. Data for the rad50 strain (AID 155);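 also: 0% = growth of vehicle-only cultures of the same strain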
Conditions: S. cerevisiae rad50 strain growth inhibition; at 50.0 µM; active compounds read high
This is part of a sample that, as a whole, favours compounds with a hit. Of some 79,000 tested, about 15% had one in any assay.
Kindly return true if reported growth inhibition is no lower than 10%; return false if it is lower.

[
  {
    "molecule": "NC(Cc1cc([N+](=O)[O-])ccc1CN(CCCl)CCCl)C(=O)O (stereo unspecified)",
    "class": "true"
  }
]

Okay, now this molecule:
Does the reported growth inhibition for O=[N+]([O-])c1ncc[nH]1 fall at or above the 10% mark?
false

====

Assay: NCI Yeast Anticancer Drug Screen. Data for the rad50 strain (AID 155);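 also: 0% = growth of vehicle-only cultures of the same strain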
Conditions: S. cerevisiae rad50 strain growth inhibition; at 50.0 µM
This is part of a sample that, as a whole, favours compounds with a hit. Of some 79,000 tested, about 15% had one in any assay. Active and inactive are the calls of the source. No stated cut-off is given here; in the data, active means growth inhibition above about 70%; inactive means the rest.
Reply using exactly one outcome from 1.0 for active, 0.0 for inactive

A selection of reference data follows.
[
  {
    "molecule": "C[C@]12C=CC(=O)C=C1CC[C@@H]1[C@@H]2C(=O)C[C@]2(C)C(=O)CC[C@@H]12",
    "class": 0.0
  },
  {
    "molecule": "COc1ccc2c3c1O[C@]1(C)C34CCN(C)C(C2)C42C=C[C@@]1(OC)c1c(O)ccc(O)c12",
    "class": 0.0
  },
  {
    "molecule": "COc1cc([C@@H]2c3cc4c(cc3C[C@H]3COC(=O)[C@@H]32)OCO4)cc(OC)c1OC",
    "class": 0.0
  },
  {
    "molecule": "NC(=O)c1cc([N+](=O)[O-])c(Cl)c([N+](=O)[O-])c1Cl",
    "class": 1.0
  },
  {
    "molecule": "Nc1nc(N)c(-c2ccc(Cl)c(Cl)c2)c(CCc2ccc(CNC(=O)c3cccc(S(=O)(=O)F)c3)cc2)n1",
    "class": 0.0
  },
  {
    "molecule": "O=P1(N(CCCl)CCCl)Nc2cc3ccccc3cc2N1",
    "class": 0.0
  },
  {
    "molecule": "CCCCOP(=S)(Nc1ccccc1)OCCCC",
    "class": 1.0
  },
  {
    "molecule": "O.O.O=Cc1ccccc1O.O=Cc1ccccc1O.[Co]",
    "class": 1.0
  }
]

Per the records of this test, what outcome belongs to O=C(O)Cc1ccc([N+](=O)[O-])cc1[N+](=O)[O-] ?
0.0

====

Test: NCI Yeast Anticancer Drug Screen. Data for the bub3 strain (AID 167)
Details: S. cerevisiae bub3 mutant strain, at 50.0 µM, active compounds read high
Compounds without any hit were thinned out: in the full panel of roughly 79,000, 15% have a hit.
Kindly state growth inhibition for each of the entries shown.
Give bare numbers, in %.

[
  {
    "molecule": "Cc1ccccc1[N+](=O)[O-]",
    "growth inhibition [%]": -10.1
  },
  {
    "molecule": "O=C(c1ccccc1)c1cc(CN(CCCl)CCCl)c(O)cc1O",
    "growth inhibition [%]": 29.3
  },
  {
    "molecule": "CCOP(=S)(OCC)SSSP(=S)(OCC)OCC",
    "growth inhibition [%]": 70
  }
]

Provide growth inhibition for all items below, preserving their order.
1. CN1CCN(C)C(N2CCOCC2)C(C)(C)C1 (stereo not given)
2. NNc1cccc2c1CCC(N)C2 (stereo not given)

1: 0.85; 2: 5

====

Could you please report measured growth inhibition for the items listed next?
Assay: NCI Yeast Anticancer Drug Screen. Data for the sgs1 mgt1 strain (AID 161);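 also: 0% = growth of cultures given vehicle only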
Details: S. cerevisiae sgs1 mgt1 strain, at 50.0 µM, active compounds read high
About 79,000 compounds went through this panel and 15% of them were active in at least one assay; those are over-represented in the sample as a whole.
Answers are plain numbers, in %.

Sample records with growth inhibition:
[
  {
    "compound": "S=c1[nH]c2ccccc2s1.[Pb]",
    "unit symbol": "%",
    "growth inhibition": 95.5
  },
  {
    "compound": "C#CC[As+](c1ccccc1)(c1ccccc1)c1ccccc1",
    "unit symbol": "%",
    "growth inhibition": 92.5
  },
  {
    "compound": "O=P(c1ccccc1)(c1ccccc1)c1ccccc1.[Cl][Sn]([c]1ccccc1)([c]1ccccc1)[c]1ccccc1",
    "unit symbol": "%",
    "growth inhibition": 99.7
  },
  {
    "compound": "CC1=CC23C(COC(=O)C24CO4)C(C(=O)O)=CC3C1C (centres undefined) (tested in a mixture with another compound)",
    "unit symbol": "%",
    "growth inhibition": 34.5
  },
  {
    "compound": "O=C(CC(=O)c1ccccc1)c1ccccc1.O=C(CC(=O)c1ccccc1)c1ccccc1.O=C(CC(=O)c1ccccc1)c1ccccc1.[Al]",
    "unit symbol": "%",
    "growth inhibition": 43.6
  }
]

For each of the compounds below, state growth inhibition.
1. COP(=O)(CC(=O)CCCCC1OCCO1)OC
2. O=P(Oc1ccccc1)(Oc1ccccc1)Oc1ccccc1Cl
3. Cc1sc2cccc[n+]2c1C
4. NC(CSC(c1ccccc1)c1ccccc1)C(=O)O (centres undefined)
5. COc1ccc(C(N)Cc2cc(OC)c(OC)c(OC)c2)cc1 (centres undefined)
6. COc1cccc(C2(C#N)CCN(C)CC2)c1
7. C/C=N/Nc1ccc([N+](=O)[O-])cc1[N+](=O)[O-]
8. O=C(O)CC(S)C(=O)O (centres undefined)

1. 1.3
2. 13.6
3. -8.95
4. 3.35
5. 2.9
6. 22.7
7. -11.8
8. -3.7

====

Consider the following molecules; for each one, report its growth inhibition.
Assay: NCI Yeast Anticancer Drug Screen. Data for the rad50 strain (AID 155);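 also: 0% = growth of vehicle-only cultures of the same strain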
Settings: S. cerevisiae rad50 strain growth inhibition; at 50.0 µM; active compounds read high
This is part of a sample that, as a whole, favours compounds with a hit. Of some 79,000 tested, about 15% had one in any assay.
Give bare numbers, in %.

Sample records with growth inhibition:
[
  {
    "molecule": "C#CCN1C(=O)CN2C(Cl)(Cl)C2(c2ccccc2)c2cc(Cl)ccc21 (stereo unspecified)",
    "numeric value": 20.1
  },
  {
    "molecule": "CC(NC1=NCCO1)c1cccs1 (stereo unspecified)",
    "numeric value": 12.2
  },
  {
    "molecule": "O=[N+]([O-])c1cc(Cl)ccc1S(=O)(=O)F",
    "numeric value": 99.7
  }
]

List reported growth inhibition for each of these molecules:
1. COC(=O)C1C2CCCN2OC1(C)CO (stereo unspecified)
2. C[N+](C)(C)NP(=O)(N[N+](C)(C)C)c1ccccc1
3. CC(C)CCC[C@@H](C)[C@H]1CC[C@H]2[C@@H]3CC=C4C[C@@H](OC(=O)F)CC[C@]4(C)[C@H]3CC[C@]12C
4. O=C(Cl)C1CCC1
5. COc1ccc(CC2OC3(CCCCC3)CC3CCCCN32)cc1 (stereo unspecified)
6. N#Cc1ccc(N)cc1

-2.6
3.2
19.9
11
23.2
-2.9

Batch lookup, growth inhibition per entry.
1. CCOC(=O)NP(=O)(NNc1ccccc1)NNc1ccccc1
2. CC(=O)C(C(C)=O)C(C)=O.CC(=O)C(C(C)=O)C(C)=O.CC(=O)C(C(C)=O)C(C)=O.[Cr]
3. [Cl][Sn]([CH2]c1ccccc1)([CH2]c1ccccc1)[CH2]c1ccccc1
4. CC(=O)O

1: 100; 2: 25.2; 3: 99; 4: 2.15

Dear reader, for each entry below, please note its growth inhibition.
1. CCCCCN1C(=O)C2C(C1=O)C1(Cl)C(Cl)=C(Cl)C2(Cl)C1(Cl)Cl (stereo unspecified)
2. Cc1cc(OC(=O)N(CCCl)CCCl)c(C(C)C)cc1N=O
3. CC(=O)NNC(=O)C(Cl)Cl

1. 97
2. 97.3
3. 5.45

====

Experiment: NCI Yeast Anticancer Drug Screen. Data for the mlh1 rad18 strain (AID 175)
Conditions: S. cerevisiae mlh1 rad18 strain growth inhibition; at 50.0 µM (retest, dose inferred, filed as 5.0); active compounds read high
Protocol: Growth inhibition of yeast strains with defined genetic alterations is measured as a screen for potential anti-cancer activity. Selected strains with alterations in DNA damage repair or cell cycle control were exposed to compounds and growth inhibition was measured relative to vehicle treated controls. The strain used in this assay is mlh1 rad18
Compounds without any hit were thinned out: in the full panel of roughly 79,000, 15% have a hit.
Task for the reader: assign each of the following compounds its reported growth inhibition.
Give bare numbers, in %.

For orientation, consider the following solved cases.
[
  {
    "compound": "CCC[CH2][Sn]1([CH2]CCC)[O]C2C(O)OC(CO)C(O)C2[O]1 (centres undefined)",
    "numeric value": 99
  },
  {
    "compound": "COc1ccc2c(ccc3oc([N+](=O)[O-])cc32)c1",
    "numeric value": 96
  },
  {
    "compound": "COc1ccc(O)c(/C=C/[N+](=O)[O-])c1",
    "numeric value": 99
  },
  {
    "compound": "CC(C)(C)OOC(=O)/C=C\\C(=O)OOC(C)(C)C",
    "numeric value": 0
  },
  {
    "compound": "O=[C-]c1ccccc1[C-]=O.[Pd+2].c1ccc([PH+](c2ccccc2)c2ccccc2)cc1.c1ccc([PH+](c2ccccc2)c2ccccc2)cc1",
    "numeric value": 80
  }
]

Hi, could you look up growth inhibition for each item in my list?
1. CC(=O)OCC12CC(O)C(C)=CC1OC1C(O)C(OC(C)=O)C2(C)C12CO2 (centres undefined)
2. CCNC(=O)OOC(C)(C)C
3. Cc1ccc(NCc2ccccc2)cc1[As](=O)(O)O
4. CC(Cl)CN1COc2c3c(c4ccccc4c2C1)CN(CC(C)Cl)CO3 (centres undefined)
5. Cc1cc([N+](=O)[O-])c2ccccc2[n+]1[O-]

1. 37
2. 96
3. 99
4. 97
5. 100

Kindly give each listed record's growth inhibition.
1. COc1cc(C(=O)[O][Hg][CH2]C2CC(O)CC([CH2][Hg][O]C(=O)c3cc(OC)c(OC)c(OC)c3)O2)cc(OC)c1OC (centres undefined)
2. COc1ccc(/C=C/[N+](=O)[O-])cc1

99
99

Dear colleague, could you send me growth inhibition for each of the items below? Thanks.
1. [Cl][Sn]([c]1ccccc1)([c]1ccccc1)[c]1ccccc1
2. [C-]#[O+].[C-]#[O+].[C-]#[O+].[C-]#[O+].[Mo].c1cnc2c(c1)ccc1cccnc12
3. O=C(Cc1c2ccccc2cc2c1ccc1ccccc12)N(CCCl)CCCl

[98, -8, 96]
